Biological target: Multidrug efflux pump subunit AcrB (Escherichia coli (strain K12)) (UniProt P31224)
Sequence (whole entry): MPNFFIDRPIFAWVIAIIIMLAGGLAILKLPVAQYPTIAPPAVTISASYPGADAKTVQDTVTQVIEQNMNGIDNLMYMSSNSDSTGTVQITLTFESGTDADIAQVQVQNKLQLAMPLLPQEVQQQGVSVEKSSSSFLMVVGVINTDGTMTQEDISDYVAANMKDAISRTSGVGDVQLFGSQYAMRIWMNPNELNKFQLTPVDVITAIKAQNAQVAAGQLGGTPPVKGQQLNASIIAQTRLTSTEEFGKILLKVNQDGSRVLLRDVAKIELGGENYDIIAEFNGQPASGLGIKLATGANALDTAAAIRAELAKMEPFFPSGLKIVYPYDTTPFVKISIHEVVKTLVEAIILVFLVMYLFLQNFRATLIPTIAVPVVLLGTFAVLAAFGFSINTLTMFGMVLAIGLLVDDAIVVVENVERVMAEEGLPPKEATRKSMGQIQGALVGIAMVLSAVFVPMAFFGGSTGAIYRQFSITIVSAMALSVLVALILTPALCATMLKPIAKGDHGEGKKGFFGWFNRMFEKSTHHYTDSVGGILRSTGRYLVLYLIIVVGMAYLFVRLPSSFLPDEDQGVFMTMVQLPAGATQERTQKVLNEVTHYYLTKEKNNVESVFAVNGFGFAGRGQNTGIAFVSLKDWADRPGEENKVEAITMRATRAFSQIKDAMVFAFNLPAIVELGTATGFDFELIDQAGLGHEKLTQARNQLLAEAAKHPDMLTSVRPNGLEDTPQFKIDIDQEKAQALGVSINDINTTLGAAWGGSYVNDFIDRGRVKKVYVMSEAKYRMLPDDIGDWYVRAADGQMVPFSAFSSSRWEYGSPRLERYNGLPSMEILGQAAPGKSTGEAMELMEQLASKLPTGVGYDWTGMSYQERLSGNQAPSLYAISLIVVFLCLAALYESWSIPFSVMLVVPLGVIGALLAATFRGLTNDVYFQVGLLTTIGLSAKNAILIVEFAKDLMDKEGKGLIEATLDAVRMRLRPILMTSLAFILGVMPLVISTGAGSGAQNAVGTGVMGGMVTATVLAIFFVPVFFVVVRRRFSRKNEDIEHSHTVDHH
Test: Inhibition of AcrB in Escherichia coli BW25113 assessed as potentiation of chloramphenicol induced antibacterial activity by measuring chloramphenicol MIC at 64 ug/ml measured after 18 hrs by checkerboard titration method (reference value: 8 ug/ml)
Details: dose 64.0 µg/ml
Please go through the items and note down their MIC.
Give me the value, and tack the unit on after it.

Exercise: Notebook: pull reported MIC for Multidrug efflux pump subunit AcrB (Escherichia coli (strain K12)) (UniProt P31224), entry "Oc1ccc(CCCCc2cc3cccc4ccc5cccc2c5c43)cc1O"
Key: 8 µg/mL

Exercise: # returns recorded MIC (system: Multidrug efflux pump subunit AcrB (Escherichia coli (strain K12)) (UniProt P31224)) for "Nc1ccc(C(=O)NCCc2ccc(O)c(O)c2)cc1"
Key: 4 µg/mL

Exercise: Query MIC on Multidrug efflux pump subunit AcrB (Escherichia coli (strain K12)) (UniProt P31224) for "Nc1ccccc1C(=O)NCCc1ccc(O)c(O)c1"
Key: 4 µg/mL

Exercise: Recorded MIC for "Oc1ccc(CCCCCc2ccc(O)c(O)c2)cc1O" with Multidrug efflux pump subunit AcrB (Escherichia coli (strain K12)) (UniProt P31224), please?
Key: 8 µg/mL

Exercise: Record "Oc1ccc(CCCCCCc2ccc(O)c(O)c2)cc1O" : what is its MIC with Multidrug efflux pump subunit AcrB (Escherichia coli (strain K12)) (UniProt P31224)?
Key: 8 µg/mL

Exercise: Entry "Oc1ccc(CCCCc2ccc(O)c(O)c2)cc1O" , system Multidrug efflux pump subunit AcrB (Escherichia coli (strain K12)) (UniProt P31224): what MIC was measured?
Key: 8 µg/mL

Exercise: Observed MIC on Multidrug efflux pump subunit AcrB (Escherichia coli (strain K12)) (UniProt P31224) for "Oc1ccc(CCCCc2ccc(Br)cc2)cc1O" , please.
Key: 8 µg/mL

Exercise: What is its MIC for Multidrug efflux pump subunit AcrB (Escherichia coli (strain K12)) (UniProt P31224)? Entry: "O=C(NCCc1ccc(O)c(O)c1)c1ccc(C(F)(F)F)cc1"
Key: 8 µg/mL

Exercise: Find MIC (Multidrug efflux pump subunit AcrB (Escherichia coli (strain K12)) (UniProt P31224)) for the entry "O=C(NCCc1ccc(O)c(O)c1)c1ccccc1O"
Key: 8 µg/mL

Exercise: Form entry - test system: Multidrug efflux pump subunit AcrB (Escherichia coli (strain K12)) (UniProt P31224); read-out: MIC; compound: "O=C(NCCc1ccc(O)c(O)c1)c1cc(O)c(O)c(O)c1"
Key: 4 µg/mL

Exercise: Notebook entry, Multidrug efflux pump subunit AcrB (Escherichia coli (strain K12)) (UniProt P31224) assay: MIC of "O=C(NCCc1ccc(O)c(O)c1)c1ccc(O)c(O)c1" = ?
Key: 2 µg/mL

Exercise: Find MIC (Multidrug efflux pump subunit AcrB (Escherichia coli (strain K12)) (UniProt P31224)) for the entry "Oc1ccc(CCCCc2ccc(Cl)cc2)cc1O"
Key: 16 µg/mL

Exercise: Observed MIC on Multidrug efflux pump subunit AcrB (Escherichia coli (strain K12)) (UniProt P31224) for "Oc1ccc(CCCCCCCc2ccc(O)c(O)c2)cc1O" , please.
Key: 8 µg/mL

Exercise: Short answer please: MIC, Multidrug efflux pump subunit AcrB (Escherichia coli (strain K12)) (UniProt P31224), entry "Oc1ccc(CCCc2ccc(O)c(O)c2)cc1O"
Key: 8 µg/mL

Exercise: Query the reported MIC for Multidrug efflux pump subunit AcrB (Escherichia coli (strain K12)) (UniProt P31224); item: "O=C(NCCc1ccc(O)c(O)c1)c1ccc(Br)cc1"
Key: 8 µg/mL

Exercise: Find the measured MIC: item "Oc1ccc(CCCCc2ccccc2O)cc1O" , target or system Multidrug efflux pump subunit AcrB (Escherichia coli (strain K12)) (UniProt P31224).
Key: 4 µg/mL

Exercise: Report MIC for "Oc1ccc(CCCCc2cc(O)c(O)c(O)c2)cc1O" tested on Multidrug efflux pump subunit AcrB (Escherichia coli (strain K12)) (UniProt P31224).
Key: 8 µg/mL

Exercise: Kindly state the measured MIC obtained for "C[C@H](Cc1ccc(O)c(O)c1)[C@@H](C)Cc1ccc(O)c(O)c1" with Multidrug efflux pump subunit AcrB (Escherichia coli (strain K12)) (UniProt P31224).
Key: 8 µg/mL

Exercise: Fill in the recorded MIC for this compound, with Multidrug efflux pump subunit AcrB (Escherichia coli (strain K12)) (UniProt P31224) as test system: "Nc1cc(N)cc(C(=O)NCCc2ccc(O)c(O)c2)c1"
Key: 8 µg/mL

Data provenance is ChEMBL document CHEMBL4680134.
